What selectivity ratio was measured for each of the following?
- test_name: Selectivity index, ratio of antiproliferative IC50 for African green monkey Vero cells to antiproliferative IC50 for human KB cells
- Format: toxicity
- condition_label: Vero cells versus KB cells, read-out: Ratio IC50
Lab note: jot down the number only; don't add units.

Asked: // selectivity ratio lookup, key: CC(=O)O[C@@]12CO[C@@H]1C[C@H](O)[C@@]1(C)C(=O)[C@H](O)C3=C(C)[C@@H](OC(=O)[C@H](O)[C@@H](NC(=O)OC(C)(C)C)c4ccccc4)C[C@@](O)([C@@H](OC(=O)c4ccccc4)[C@H]21)C3(C)C [DOCETAXEL ANHYDROUS]
Given back: 2.6

Asked: Same question for C=C(C)[C@@H]1CC[C@]2(C(=O)O)CC[C@]3(C)[C@H](CC[C@@H]4[C@@]5(C)CC[C@H](O)C(C)(C)[C@@H]5CC[C@]43C)[C@@H]12 [BETULINIC ACID] please.
Given back: 2.6

Asked: Same question for "C=C(C)[C@@H]1CC[C@]2(C(=O)O)CC[C@]3(C)[C@H](CC[C@@H]4[C@@]5(C)CC[C@H]6OC(C)(C)OC[C@]6(C)[C@@H]5CC[C@]43C)[C@@H]12" please.
Given back: 39.9

Asked: Same question for "C=C(C)[C@@H]1CC[C@]2(C(=O)O)CC[C@]3(C)[C@H](CC[C@@H]4[C@@]5(C)CC[C@@H](O)[C@](C)(CO)[C@@H]5CC[C@]43C)[C@@H]12" please.
Given back: 18.3

----------
- test_name: Selectivity index, ratio of antiproliferative IC50 for African green monkey Vero cells to antiproliferative IC50 for human DU145 cells
- Assay type: toxicity
- condition_label: Vero cells versus DU145 cells, read-out: Ratio IC50
endpoint_name: selectivity ratio

Asked: // selectivity ratio lookup, key: CC(=O)O[C@@]12CO[C@@H]1C[C@H](O)[C@@]1(C)C(=O)[C@H](O)C3=C(C)[C@@H](OC(=O)[C@H](O)[C@@H](NC(=O)OC(C)(C)C)c4ccccc4)C[C@@](O)([C@@H](OC(=O)c4ccccc4)[C@H]21)C3(C)C [DOCETAXEL ANHYDROUS]
Given back: 13

----------
- Tested on: MDA-MB-231
- test_name: Antiproliferative activity in human MDA-MB-231 cells by sulforhodamine B assay
- Type: functional, cell-based
pIC50: −log10 of the molar value.
endpoint_name: pIC50

Asked: Query pIC50 on MDA-MB-231 for "C=C(C)[C@@H]1CC[C@]2(C)CC[C@]3(C)[C@H](CC[C@@H]4[C@@]5(C)CCC(=O)C(C)(C)[C@@H]5CC[C@]43C)[C@@H]12"
Given back: < 3.30

Asked: Same question for "C=C(C)[C@@H]1CC[C@]2(C(=O)O)CC[C@]3(C)[C@H](CC[C@@H]4[C@@]5(C)CC[C@H]6OC(C)(C)OC[C@]6(C)[C@@H]5CC[C@]43C)[C@@H]12" please.
Given back: < 3.30

Asked: Same question for "C=C(C)[C@@H]1CC[C@]2(C(=O)O)CC[C@]3(C)[C@H](CC[C@@H]4[C@@]5(C)CCC(=O)C(C)(C)[C@@H]5CC[C@]43C)[C@@H]12" please.
Given back: < 3.30

Asked: Same question for C=C(C)[C@@H]1CC[C@]2(C(=O)O)CC[C@]3(C)[C@H](CC[C@@H]4[C@@]5(C)CC[C@@H](O)C(C)(C)[C@@H]5CC[C@]43C)[C@@H]12 [EPIBETULINIC ACID] please.
Given back: < 3.30

Asked: Same question for "C=C(C)[C@@H]1CC[C@]2(CO)CC[C@]3(C)[C@H](CC[C@@H]4[C@@]5(C)CCC(=O)C(C)(C)[C@@H]5CC[C@]43C)[C@@H]12" please.
Given back: < 3.30

Asked: Same question for "C=C(C)[C@@H]1CC[C@]2(C(=O)O)CC[C@]3(C)[C@H](CC[C@@H]4[C@@]5(C)CC[C@H](O)C(C)(C)[C@@H]5CC[C@]43C)[C@@H]12" please.
Given back: < 3.30

Asked: Same question for "C=C(C=O)[C@@H]1CC[C@]2(C(=O)O)CC[C@]3(C)[C@H](CC[C@@H]4[C@@]5(C)CC[C@@H](O)[C@](C)(CO)[C@@H]5CC[C@]43C)[C@@H]12" please.
Given back: 3.91

Asked: Same question for CC(=O)O[C@@]12CO[C@@H]1C[C@H](O)[C@@]1(C)C(=O)[C@H](O)C3=C(C)[C@@H](OC(=O)[C@H](O)[C@@H](NC(=O)OC(C)(C)C)c4ccccc4)C[C@@](O)([C@@H](OC(=O)c4ccccc4)[C@H]21)C3(C)C [DOCETAXEL ANHYDROUS] please.
Given back: 7.15

Asked: Same question for "C=C(C)[C@@H]1CC[C@]2(CO)CC[C@]3(C)[C@H](CC[C@@H]4[C@@]5(C)CC[C@H](O)C(C)(C)[C@@H]5CC[C@]43C)[C@@H]12" please.
Given back: < 3.30

Asked: Same question for "CC1(C)CC[C@]2(C(=O)O)CC[C@]3(C)C(=CC[C@@H]4[C@@]5(C)CC[C@H](O)C(C)(C)[C@@H]5CC[C@]43C)[C@@H]2C1" please.
Given back: 3.87

Asked: Same question for "C=C(C)[C@@H]1CC[C@]2(C(=O)O)CC[C@]3(C)[C@H](CC[C@@H]4[C@@]5(C)CC[C@@H](O)[C@](C)(CO)[C@@H]5CC[C@]43C)[C@@H]12" please.
Given back: 3.30 to 3.77

----------
- test_name: Selectivity index, ratio of cytotoxic CC50 for HEK293 cells to cytotoxic CC50 for human SiHa cells
- Format: toxicity
- condition_label: HEK293 cells versus SiHa cells, read-out: Selectivity Index
endpoint_name: selectivity ratio
Lab note: jot down the number only; don't add units.

Asked: // selectivity ratio lookup, key: "C=C(C)[C@@H]1CC[C@]2(C(=O)O)CC[C@]3(C)[C@H](CC[C@@H]4[C@@]5(C)CC[C@H](O)C(C)(C)[C@@H]5CC[C@]43C)[C@@H]12"
Given back: 2.8

Asked: Same question for CC(=O)O[C@@]12CO[C@@H]1C[C@H](O)[C@@]1(C)C(=O)[C@H](O)C3=C(C)[C@@H](OC(=O)[C@H](O)[C@@H](NC(=O)OC(C)(C)C)c4ccccc4)C[C@@](O)([C@@H](OC(=O)c4ccccc4)[C@H]21)C3(C)C [DOCETAXEL ANHYDROUS] please.
Given back: 7.3

----------
- System: DU-145
- test_name: Cytotoxic activity in human DU145 cells by sulforhodamine B assay
- Assay type: functional
endpoint_name: CC50 (µM)
Your answer is read as µM, so omit the unit and give the number.

Asked: // CC50 lookup, key: "C=C(C)[C@@H]1CC[C@]2(CO)CC[C@]3(C)[C@H](CC[C@@H]4[C@@]5(C)CC[C@H](O)C(C)(C)[C@@H]5CC[C@]43C)[C@@H]12"
Given back: 162

Asked: Same question for "C=C(C=O)[C@@H]1CC[C@]2(C(=O)O)CC[C@]3(C)[C@H](CC[C@@H]4[C@@]5(C)CC[C@@H](O)[C@](C)(CO)[C@@H]5CC[C@]43C)[C@@H]12" please.
Given back: 52.6

Asked: Same question for "C=C(C)[C@@H]1CC[C@]2(CO)CC[C@]3(C)[C@H](CC[C@@H]4[C@@]5(C)CCC(=O)C(C)(C)[C@@H]5CC[C@]43C)[C@@H]12" please.
Given back: 102

----------
- test_name: Cytotoxic activity in African green monkey Vero cells by sulforhodamine B assay
- Type: cell-based
- condition_label: chlorocebus sabaeus
endpoint_name: CC50

Asked: // CC50 lookup, key: "C=C(C)[C@@H]1CC[C@]2(CO)CC[C@]3(C)[C@H](CC[C@@H]4[C@@]5(C)CCC(=O)C(C)(C)[C@@H]5CC[C@]43C)[C@@H]12"
Given back: > 500 µM

Asked: Same question for "C=C(C)[C@@H]1CC[C@]2(C)CC[C@]3(C)[C@H](CC[C@@H]4[C@@]5(C)CCC(=O)C(C)(C)[C@@H]5CC[C@]43C)[C@@H]12" please.
Given back: > 500 µM

Asked: Same question for "CC1(C)CC[C@]2(C(=O)O)CC[C@]3(C)C(=CC[C@@H]4[C@@]5(C)CC[C@H](O)C(C)(C)[C@@H]5CC[C@]43C)[C@@H]2C1" please.
Given back: > 500 µM

----------
- test_name: Selectivity index, ratio of antiproliferative IC50 for HEK293 cells to antiproliferative IC50 for human MDA-MB-231 cells
- Type: toxicity
- condition_label: HEK293 cells versus MDA-MB-231 cells, read-out: Ratio IC50
endpoint_name: selectivity ratio
Lab note: jot down the number only; don't add units.

Asked: // selectivity ratio lookup, key: CC(=O)O[C@@]12CO[C@@H]1C[C@H](O)[C@@]1(C)C(=O)[C@H](O)C3=C(C)[C@@H](OC(=O)[C@H](O)[C@@H](NC(=O)OC(C)(C)C)c4ccccc4)C[C@@](O)([C@@H](OC(=O)c4ccccc4)[C@H]21)C3(C)C [DOCETAXEL ANHYDROUS]
Given back: 1.6
